// values below are reported switch fluorescence ratio
System: ATP;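 further: ATP exposure 15 min at 22 °C before imaging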
Test: switch fluorescence ratio, 500 uM ATP over buffer (Cy3 cluster intensity, sum of 5 cycles each) (fold (ratio)); higher = stronger signal-on switching upon ATP binding; sequences stand for … in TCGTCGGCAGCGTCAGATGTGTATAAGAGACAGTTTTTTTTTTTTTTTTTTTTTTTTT…TC
Details: aptamer strand: ATP DNA aptamer (quencher-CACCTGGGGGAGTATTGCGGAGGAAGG + anchor), 100 nM annealed; ATP concentration: 500 uM
API note: the answer field is a bare number with no unit suffix.

chain=GAAAATAGTG recorded_value=1.01
chain=TGATAAAAAT recorded_value=0.993
chain=GGAGCAGTTT recorded_value=1.12
chain=ATACAAGGCA recorded_value=0.956
chain=GGGTGGGGAG recorded_value=0.984
chain=TGGGGGCGGG recorded_value=1
chain=CGTCATTCGC recorded_value=1.05
chain=ATATTGGTGG recorded_value=0.991

Request: I would be grateful if you could share the reported switch fluorescence ratio for CCAGCAGGTA .
Response: 1.13

Request: Also AGGGATTAGT ?
Response: 0.991

Request: Also CGTACGGACC ?
Response: 1.26

Request: Also TATGAAGTTG ?
Response: 0.985

Request: Also AAGGACAGGA ?
Response: 1.03

Request: Also ATGGTACCCT ?
Response: 1.04

Request: Also CGGGTTGGGG ?
Response: 1

Request: Also CGGCACCACA ?
Response: 1.08

Request: Also CAGCGAGGGG ?
Response: 1.21

Request: Also AAAGGTTGAT ?
Response: 1.01

Request: Also AACGGTAGTG ?
Response: 1.09

Request: Also TCAATGAATA ?
Response: 0.986

---

Tested on: ATP;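 further: ATP exposure 15 min at 22 °C before imaging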
Experiment: switch fluorescence ratio, 500 uM ATP over buffer (Cy3 cluster intensity, sum of 5 cycles each) (fold (ratio)); higher = stronger signal-on switching upon ATP binding; sequences stand for … in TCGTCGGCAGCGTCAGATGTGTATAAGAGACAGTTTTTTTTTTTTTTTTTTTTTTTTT…TC
Conditions: aptamer strand: ATP DNA aptamer (quencher-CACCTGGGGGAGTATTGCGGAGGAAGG + anchor), 100 nM annealed; ATP concentration: 500 uM
experimental_endpoint: switch fluorescence ratio
API note: the answer field is a bare number with no unit suffix.

chain=TGTAATCTAC recorded_value=1.06

Request: I would be grateful if you could share the reported switch fluorescence ratio for GGGGGATACT .
Response: 1.04

Request: Also CGGCTTTTGT ?
Response: 1

Request: Also AGAGGATGTA ?
Response: 1

Request: Also AAAGCTGCCA ?
Response: 1

Request: Also ACGCGATTTT ?
Response: 1.35

---

// values below are reported switch fluorescence ratio
Test system: ATP;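 further: ATP exposure 15 min at 22 °C before imaging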
Test: switch fluorescence ratio, 500 uM ATP over buffer (Cy3 cluster intensity, sum of 5 cycles each) (fold (ratio)); higher = stronger signal-on switching upon ATP binding; sequences stand for … in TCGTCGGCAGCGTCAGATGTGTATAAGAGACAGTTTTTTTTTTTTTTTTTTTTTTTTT…TC
Conditions: aptamer strand: ATP DNA aptamer (quencher-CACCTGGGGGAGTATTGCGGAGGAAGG + anchor), 100 nM annealed; ATP concentration: 500 uM
API note: the answer field is a bare number with no unit suffix.

chain=GCTACTGGAT target=ATP recorded_value=1.01
chain=AAACGTGGGG target=ATP recorded_value=1.01
chain=TGTACGGGGA target=ATP recorded_value=0.995

Request: I would be grateful if you could share the reported switch fluorescence ratio for AGGGAGAGCC .
Response: 0.996

Request: Also ATTCTTGAGA ?
Response: 0.988

---

// values below are reported switch fluorescence ratio
System: ATP;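 further: ATP exposure 15 min at 22 °C before imaging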
Test: switch fluorescence ratio, 500 uM ATP over buffer (Cy3 cluster intensity, sum of 5 cycles each) (fold (ratio)); higher = stronger signal-on switching upon ATP binding; sequences stand for … in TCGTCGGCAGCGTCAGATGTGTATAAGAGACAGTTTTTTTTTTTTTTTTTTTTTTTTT…TC
Conditions: aptamer strand: ATP DNA aptamer (quencher-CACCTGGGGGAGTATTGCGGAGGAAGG + anchor), 100 nM annealed; ATP concentration: 500 uM
API note: the answer field is a bare number with no unit suffix.

chain=ATTGGGTTCT target=ATP recorded_value=0.991
chain=CGAGGGTCGG target=ATP recorded_value=1.01
chain=TGATTTTCTG target=ATP recorded_value=1.01
chain=GCGCGTCAAG target=ATP recorded_value=1.01
chain=GTTAGTACGG target=ATP recorded_value=0.982

Request: I would be grateful if you could share the reported switch fluorescence ratio for TGCAGTCAAG .
Response: 1.01

Request: Also TGGCTTGGCG ?
Response: 1.01

---

// values below are reported switch fluorescence ratio
System: ATP;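 further: ATP exposure 15 min at 22 °C before imaging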
Assay: switch fluorescence ratio, 500 uM ATP over buffer (Cy3 cluster intensity, sum of 5 cycles each) (fold (ratio)); higher = stronger signal-on switching upon ATP binding; sequences stand for … in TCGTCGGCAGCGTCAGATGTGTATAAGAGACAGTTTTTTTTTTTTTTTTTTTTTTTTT…TC
Details: aptamer strand: ATP DNA aptamer (quencher-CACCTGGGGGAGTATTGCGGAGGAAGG + anchor), 100 nM annealed; ATP concentration: 500 uM
API note: the answer field is a bare number with no unit suffix.

# annotated cases, reported switch fluorescence ratio shown
chain=GGAACGTTGG target=ATP recorded_value=0.973
chain=CATGGTCATG target=ATP recorded_value=1
chain=CGAGTAGGAA target=ATP recorded_value=0.984
chain=GTTTCGCCGT target=ATP recorded_value=1.05
chain=GAGAAGATTT target=ATP recorded_value=1.04

Request: Give switch fluorescence ratio (ATP) of the following sequence: TGGACCCGAT
Response: 0.978

Request: Also GCAGTCCGTC ?
Response: 1.06

Request: Also ATTCAAAAAT ?
Response: 1.04

Request: Also TTGTTAACTT ?
Response: 0.985

Request: Also TGGGCAGGCT ?
Response: 0.998

Request: Also TTTATTCGAA ?
Response: 0.998

---

Tested on: ATP;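 further: ATP exposure 15 min at 22 °C before imaging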
Experiment: switch fluorescence ratio, 500 uM ATP over buffer (Cy3 cluster intensity, sum of 5 cycles each) (fold (ratio)); higher = stronger signal-on switching upon ATP binding; sequences stand for … in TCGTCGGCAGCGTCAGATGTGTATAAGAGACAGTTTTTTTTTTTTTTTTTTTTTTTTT…TC
Conditions: aptamer strand: ATP DNA aptamer (quencher-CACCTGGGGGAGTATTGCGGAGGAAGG + anchor), 100 nM annealed; ATP concentration: 500 uM
// values below are reported switch fluorescence ratio
API note: the answer field is a bare number with no unit suffix.

# annotated cases, reported switch fluorescence ratio shown
chain=GGTATAAGGA target=ATP recorded_value=0.996
chain=ATGGGGCTTT target=ATP recorded_value=1.01

Request: I would be grateful if you could share the reported switch fluorescence ratio for CGTGAAATCG .
Response: 1.02

Request: Also GGGCGCAGGG ?
Response: 1.01

Request: Also TAAGTGGGGC ?
Response: 0.957

Request: Also TCAGAAGGGT ?
Response: 0.994

Request: Also TTTCGTTTCT ?
Response: 1.03

Request: Also ATCTACGAAA ?
Response: 1.31

Request: Also TATATGTCGT ?
Response: 0.99

Request: Also AAGTTACTGT ?
Response: 1.13

Request: Also TCTTGATTAT ?
Response: 0.979

Request: Also ATTAAATAGA ?
Response: 1.02

Request: Also GGGACGGGGG ?
Response: 1.06

Request: Also TTGCTATGTG ?
Response: 0.979

Request: Also ACGTTTTACA ?
Response: 1.18

---

Test system: ATP;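 further: ATP exposure 15 min at 22 °C before imaging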
Assay: switch fluorescence ratio, 500 uM ATP over buffer (Cy3 cluster intensity, sum of 5 cycles each) (fold (ratio)); higher = stronger signal-on switching upon ATP binding; sequences stand for … in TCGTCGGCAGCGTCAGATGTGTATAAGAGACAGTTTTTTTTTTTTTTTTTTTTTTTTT…TC
Details: aptamer strand: ATP DNA aptamer (quencher-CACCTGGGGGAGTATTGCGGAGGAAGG + anchor), 100 nM annealed; ATP concentration: 500 uM
// values below are reported switch fluorescence ratio
API note: the answer field is a bare number with no unit suffix.

# annotated cases, reported switch fluorescence ratio shown
chain=TACTTCATTT target=ATP experimental_endpoint="switch fluorescence ratio" recorded_value=1.03
chain=GTCGGATAGT target=ATP experimental_endpoint="switch fluorescence ratio" recorded_value=0.996

Request: I would be grateful if you could share the reported switch fluorescence ratio for TAGATTGTCT .
Response: 1.01

Request: Also TATAACTATT ?
Response: 0.999

Request: Also GAAGGGTTGG ?
Response: 0.999

Request: Also ACTGTATACG ?
Response: 1.08

Request: Also TTGTTATGAT ?
Response: 1.01
